System: Bacillus subtilis
Test: cleaved RNA product abundance (RNA/gDNA barcode ratio) relative to median wild-type variant (ratio to wild type); higher = more accumulation of the downstream cleavage product
Conditions: experiment (reporter, strain, medium): exp 8a: truncated aprE reporter, strain BJT201 with 2% xylose (RNase J1 expressed); cleavage site: glnRA (positions -5 to +31 mutated)
Threshold check on cleaved RNA product abundance: at or above 0.4 gives Satisfied, strictly below gives Not satisfied.

CGACATGTCCCGCTTCTTTCATTAATCCGTTAGCAACTGTTTTACTCTATACATTTACCTTTTAAGAGGAGGAAT :: Satisfied
CGACATGTCCCGCTTCTTTCATTAATCCGTTAGCAACTGTTTTACTATATACATTTACTTTTTAAGAGGAGGAAT :: Satisfied
CGACATGTCCCGCTTCTTTCATTAATCCGTGAACAACTGTTTTGCTATATACATTTACCTTTTAAGAGGAGGAAT :: Not satisfied
CGACATGTCCCGCTTCTTTCATTAATCCGTTAGCAACCGTTTTGCTATATACATTTACATTTTAAGAGGAGGAAT :: Satisfied
CGACATGTCCCGCTTCTTTCATTACTCCGTTAGCAACTGTTTTGCTATATACACTTACCTTTTAAGAGGAGGAAT :: Satisfied
CGACATGTCCCGCTTCTTTCATTAATCCGTTAGCAACTTTTTAGCTATATACATTTACCTTTTAAGAGGAGGAAT :: Satisfied
CGACATGTCCCGCTTCTTTCATTAATCCGTTAGCAACTGATTTGCTATATACATTTATCTTTTAAGAGGAGGAAT :: Satisfied
CGACATGTCCCGCTTCTTTCATTAATCCGTTAACAACTGTTTTGCTATATACATATACCTTTTAAGAGGAGGAAT :: Not satisfied
CGACATGTCCCGCTTCTTTCATTAATCCGTTAGCAACTGTTTAGCCATATACATTTACCTTTTAAGAGGAGGAAT :: Not satisfied
CGACATGTCCCGCTTCTTTCATTAATCCGTTAGCAACTGTTTTGCTAAATACATTTAACTTTTAAGAGGAGGAAT :: Satisfied
CGACATGTCCCGCTTCTTTCATTAATCCGTTAACAACTGTTTTGCTATAAACATTTACCTTTTAAGAGGAGGAAT :: Not satisfied
CGACATGTCCCGCTTCTTTCATTAATCCGTTAGCAAGTGTTTTGCTATATACATTTAGCTTTTAAGAGGAGGAAT :: Satisfied
CGACATGTCCCGCTTCTTTCATTAATCCGTTAGCAACAGATTTGCTATATACATTTACCTTTTAAGAGGAGGAAT :: Satisfied
CGACATGTCCCGCTTCTTTCATTAATTCGTTAGCAACTGTTTTGCTATCTACATTTACCTTTTAAGAGGAGGAAT :: Not satisfied
CGACATGTCCCGCTTCTTTCATTAATCCGTTATCAACTTTTTTGCTATATACATTTACCTTTTAAGAGGAGGAAT :: Not satisfied

---

System: Bacillus subtilis
Assay: cleaved RNA product abundance (RNA/gDNA barcode ratio) relative to median wild-type variant (ratio to wild type); higher = more accumulation of the downstream cleavage product
Conditions: experiment (reporter, strain, medium): exp 4a: truncated aprE reporter, strain BJT201 with 2% xylose (RNase J1 expressed); cleavage site: cggR-gapA (positions -7 to +36 mutated)
Threshold check on cleaved RNA product abundance: at or above 0.5 gives Yes, strictly below gives No.

ACAGACGAAGGAGCCGCAAAGAAGTTATTAAGGCATGAATAATCCCTGAATATAAATATCTCTCACTTATTTAAA :: No
ACAGACGAAGGAGCCGCAAAGAAGTTATTAAGGGATGAATAATCCCTCGATATAAATATCTCTCACTTATTTAAA :: No
ACAGACGAAGGAGCCGCAAAGAAGTTATTAAGGGATGAATCAGCCCTCAATATAAATATCTCTCACTTATTTAAA :: Yes
ACAGACGAAGGAGCCGCAAAGAAGTTATTAAGGGATGAATAATCCCTCAATATAAATGACTCTCACTTATTTAAA :: Yes
ACAGACGAAGGAGCCGCAAAGAAGTTATTAAGGGATGCATAATCCCTCAATATAAATAGCTCTCACTTATTTAAA :: No
ACAGACGAAGGAGCCGCAAACAAGTTATTAAGGGCTGAATAATCCCTCAATATAAATATCTCTCACTTATTTAAA :: No
ACAGACGAAGGAGCCGCAAAGAAATTATTAAGGGATGAATTATCCCTCAATATAAATATCTCTCACTTATTTAAA :: Yes

---

System: Bacillus subtilis
Assay: cleaved RNA product abundance (RNA/gDNA barcode ratio) relative to median wild-type variant (ratio to wild type); higher = more accumulation of the downstream cleavage product
Conditions: experiment (reporter, strain, medium): exp 2b: truncated aprE reporter, strain BJT200; cleavage site: cggR-gapA (positions -7 to +36 mutated)
Threshold check on cleaved RNA product abundance: at or above 0.2 gives Yes, strictly below gives No.

ACAGACGAAGGAGCCGCTAAGAAGTTATTAAGGGATGAATAATCCCTCAAGATAAATATCTCTCACTTATTTAAA :: Yes
ACAGACGAAGGAGCCGCAAAGAAGTTATAAAGGGATGAATTATCCCTCAATATAAATATCTCTCACTTATTTAAA :: Yes
ACAGACGAAGGAGCCGCAAAGAAGTTATGAAGTGATGAATAATCCCTCAATATAAATATCTCTCACTTATTTAAA :: No
ACAGACGAAGGAGCCGCAAAGAAGTTATTAAGAGATGAACAATCCCTCAATATAAATATCTCTCACTTATTTAAA :: No
ACAGACGAAGGAGCCGCAAAGAAGTTATTAAGGGATGAATAATCCCTCAAGATAAATATCTCTCACTTATTTAAA :: Yes
ACAGACGAAGGAGCCGCAAAGATGTTATTAAGGGATGAATAATCCCTCACTATAAATATCTCTCACTTATTTAAA :: No
ACAGACGAAGGAGCCGCAAAGAAGCTATTAAGGTATGAATAATCCCTCAATATAAATATCTCTCACTTATTTAAA :: No
ACAGACGAAGGAGCCGCAAAGAAGTTATTAAGAGATGAATAATCCCTCAATATATATATCTCTCACTTATTTAAA :: No
ACAGACGAAGGAGCCGCAAAGAAGTTATTAAGGGATGAATAATGCCTCAATATAAAAATCTCTCACTTATTTAAA :: No
ACAGACGAAGGAGCCGCAAAGAAGTTATTAAGGCATGAATAATCCCTCTATATAAATATCTCTCACTTATTTAAA :: No
ACAGACGAAGGAGCCGCAAAGAAGTTATTAAGGGGTGAATAATCCGTCAATATAAATATCTCTCACTTATTTAAA :: No
ACAGACGAAGGAGCCGCAAAGAACTTATTAAGGGATGAATAAACCCTCAATATAAATATCTCTCACTTATTTAAA :: Yes
ACAGACGAAGGAGCCGCAAAGAAATTCTTAAGGGATGAATAATCCCTCAATATAAATATCTCTCACTTATTTAAA :: No
ACAGACGAAGGAGCCGCAAAAAAGTTATTAAGGAATAAATAATCCCTCAATATAAATATCTCTCACTTATTTAAA :: No
ACAGACGAAGGAGCCGCAAACAAGTTATAAAAGGATGAATAATCCCTCAATATAAATATCTCTCACTTATTTAAA :: No

---

System: Bacillus subtilis
Assay: cleaved RNA product abundance (RNA/gDNA barcode ratio) relative to median wild-type variant (ratio to wild type); higher = more accumulation of the downstream cleavage product
Conditions: experiment (reporter, strain, medium): exp 8a: truncated aprE reporter, strain BJT201 with 2% xylose (RNase J1 expressed); cleavage site: glnRA (positions -5 to +31 mutated)
parameter: cleaved RNA product abundance

CGACATGTCCCGCTTCTTTCATTAGTCCGTTAGCAACTGTTTTACTATATACATTTACCTTTTAAGAGGAGGAAT :: 0.548
CGACATGTCCCGCTTCTTTCATTAATCCGTTAGCAACTGTTTTGCTATATACATTTATTTTTTAAGAGGAGGAAT :: 2.39
CGACATGTCCCGCTTCTTTCATTAATCCGTTAGCAACTGTTTTGTTATATACATTTACGTTTTAAGAGGAGGAAT :: 0.39
CGACATGTCCCGCTTCTTTCATTAATCCGTTATCAACTGTTTTGCTATATACATTCACCTTTTAAGAGGAGGAAT :: 0.214
CGACATGTCCCGCTTCTTTCATTAATCCATTAGCAACTGTTTCGCTATATACATTTACCTTTTAAGAGGAGGAAT :: 0.271
CGACATGTCCCGCTTCTTTCATTAATCCGTTAACAAATGTTTTGCTATATACATTTACCTTTTAAGAGGAGGAAT :: 0.287
CGACATGTCCCGCTTCTTTCATTAATCCTTTAGCAACTGTTTTGCTATATACATTGACCTTTTAAGAGGAGGAAT :: 0.333
CGACATGTCCCGCTTCTTTCATTAATCCTTTAGCAACTGTTTCGCTATATACATTTACCTTTTAAGAGGAGGAAT :: 0.282
CGACATGTCCCGCTTCTTTCATTAATCCGTTAGCAACTGTGTTGCTATATACATTTACCGTTTAAGAGGAGGAAT :: 0.537
CGACATGTCCCGCTTCTTTCATTATTCCGTTATCAACTGTTTTGCTATATACATTTACCTTTTAAGAGGAGGAAT :: 0.265
CGACATGTCCCGCTTCTTTCATTAATCCGTTAGCAACTGTTTTGCAATATACATTTACCCTTTAAGAGGAGGAAT :: 0.405
CGACATGTCCCGCTTCTTTCATTAATTCGTTAGCAACTGTTTTGCTATATACATTTACCGTTTAAGAGGAGGAAT :: 0.591
CGACATGTCCCGCTTCTTTCATTAAACCGTTAGAAACTGTTTTGCTATATACATTTACCTTTTAAGAGGAGGAAT :: 0.147
CGACATGTCCCGCTTCTTTCATTACTCAGTTAGCAACTGTTTTGCTATATACATTTACCTTTTAAGAGGAGGAAT :: 1.1
CGACATGTCCCGCTTCTTTCATTAATCCGTTATCAACTGTTTTGCTATATACATTTACCATTTAAGAGGAGGAAT :: 0.269
CGACATGTCCCGCTTCTTTCATTAATCGATTAGCAACTGTTTTGCTATATACATTTACCTTTTAAGAGGAGGAAT :: 0.79
CGACATGTCCCGCTTCTTTCATTAATCCGATAGCAACTGTTTTGCTAGATACATTTACCTTTTAAGAGGAGGAAT :: 0.354
CGACATGTCCCGCTTCTTTCATTAATCCGTTCGCAACTGTTTTGCTATATATATTTACCTTTTAAGAGGAGGAAT :: 0.324
CGACATGTCCCGCTTCTTTCATTAATCCGTTAGAAACTGTTTTGGTATATACATTTACCTTTTAAGAGGAGGAAT :: 0.104
CGACATGTCCCGCTTCTTTCATTAATCCGTTAGCAACTGTTTTGCTATACACATTTACCTTTTAAGAGGAGGAAT :: 0.459
CGACATGTCCCGCTTCTTTCATTACTCCGTTAGCAACTGTTTTGCTATATACATTTGCCTTTTAAGAGGAGGAAT :: 0.366
CGACATGTCCCGCTTCTTTCATTAATCCGTTAGCTACTGTTTTGCTATATTCATTTACATTTTAAGAGGAGGAAT :: 0.64
CGACATGTCCCGCTTCTTTCATTAATCCGTTAGCAACTGTACTGCTATATACATTTACCTTTTAAGAGGAGGAAT :: 0.328
CGACATGTCCCGCTTCTTTCATTAGTCCGTTAGCAACAGTTTTGCTATATACATTTACCTTTTAAGAGGAGGAAT :: 0.968
CGACATGTCCCGCTTCTTTCATTAATCAGTTAGCAACTGTTTTGCTATATACATTTACTTTTTAAGAGGAGGAAT :: 0.903
CGACATGTCCCGCTTCTTTCATTAATACGTTAGCAACTGTTTTGCTATATATATTTACCTTTTAAGAGGAGGAAT :: 1.83
CGACATGTCCCGCTTCTTTCATTAATCCGTTAGCAACTGTTATGCTATATACGTTTACCTTTTAAGAGGAGGAAT :: 0.232
CGACATGTCCCGCTTCTTTCATTAATCCGTTAGCAACTGTTTTCCTATATACATTAACCTTTTAAGAGGAGGAAT :: 0.43
CGACATGTCCCGCTTCTTTCATTAATCCTTTAGCAACTGTTTTGCAATATACATTTACCTTTTAAGAGGAGGAAT :: 0.453
CGACATGTCCCGCTTCTTTCATTAATCTGTTAGCAACTGTTTTGCTAAATACATTTACCTTTTAAGAGGAGGAAT :: 1.01

Source of measurements: the supplement of paper PMC11780869
